B1: library; numbered along this chain (parent)
chain: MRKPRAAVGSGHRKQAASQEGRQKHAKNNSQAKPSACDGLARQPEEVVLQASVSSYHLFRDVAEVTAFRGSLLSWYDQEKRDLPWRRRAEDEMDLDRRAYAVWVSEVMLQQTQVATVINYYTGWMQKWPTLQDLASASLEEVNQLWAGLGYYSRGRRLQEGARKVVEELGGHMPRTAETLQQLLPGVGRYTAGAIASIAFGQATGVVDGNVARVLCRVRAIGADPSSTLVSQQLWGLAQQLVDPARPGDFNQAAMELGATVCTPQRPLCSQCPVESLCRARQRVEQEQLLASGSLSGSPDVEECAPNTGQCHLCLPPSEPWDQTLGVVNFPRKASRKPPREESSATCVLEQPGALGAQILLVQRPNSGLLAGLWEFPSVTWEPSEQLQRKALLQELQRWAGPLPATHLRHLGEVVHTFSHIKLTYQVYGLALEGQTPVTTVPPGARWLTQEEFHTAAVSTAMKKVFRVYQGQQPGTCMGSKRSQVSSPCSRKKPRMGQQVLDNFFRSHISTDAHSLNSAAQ

# Variants of: B1
# PROTOCOL SUMMARY: 8OG:A repair function score (normalized; synonymous = 0, nonsense = -1) (normalized log-likelihood score); higher = more repair activity (WT-like);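 also: cells sorted at 72 h after reporter transfection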
# EXPERIMENTAL PARAMETERS: with 8OG:A DNA repair reporter (GFP) in HEK-293 MUTYH KO cells
Decide using 8OG:A repair function score: a value greater than or equal to -0.06 is 1 (yes), a smaller one is 0 (no).

G293S: 1 (yes)
A371K: 0 (no)
E45L: 1 (yes)
D208L: 0 (no)
L139V: 1 (yes)

Does 8OG:A repair function score meet or surpass -0.06 for L295V ?
1 (yes)

Does 8OG:A repair function score meet or surpass -0.06 for P488M ?
1 (yes)
